Data provenance is ChEMBL document CHEMBL1961873.

Target: Tyrosine-protein kinase JAK3 (Homo sapiens)
Conditions: at 1 µM
Description: GSK_PKIS: JAK3 mean inhibition at 1 uM [Nanosyn]
measurement name: inhibition
Quick note: unit goes after the number.

In the examples that follow, each entry is paired with its recorded inhibition.
| compound structure | measurement |
| --- | --- |
| Cc1nn(C)c2cc(N(C)c3ccnc(Nc4cccc(S(N)(=O)=O)c4)n3)ccc12 | 27.3% |
| CCn1c(-c2nonc2N)nc2c(C#CC(C)(C)O)nc(CN3CCCC3)cc21 | 1.49% |
| Cc1cccc(-c2n[nH]cc2-c2ccc3ncccc3n2)n1 | 3.06% |

Turning to the following compound.
Inquiry: Report inhibition for COC(=O)Nc1nc2cc(Oc3cccc(NC(=O)Nc4cc(C(F)(F)F)ccc4F)c3)ccc2[nH]1 please.
Reply text: 2.02%
